- Tested on: acute myeloid leukemia cells (MOLM-13)
- measurement description: In vitro potency (CellTiter-Glo, 96 h) on MOLM-13
- Format: cell-based
- particulars: Homo sapiens, MOLM-13, 96 h, CPT free drugs; CellTiter-Glo after 96 h exposure; read-out: MOLM-13 IC50
quantity name: IC50

>  <structure smiles string>
CC[C@@]1(O)C(=O)OCc2c1cc1n(c2=O)Cc2c-1nc1cc(F)c(C)c(-c3ccc(O)cc3)c1c2CN

>  <IC50>
51 nM

$$$$
>  <structure smiles string>
CC[C@@]1(O)C(=O)OCc2c1cc1n(c2=O)Cc2c-1nc1cc(F)c(C)c(C3=CCCC3)c1c2CN

>  <IC50>
4 nM

$$$$
>  <structure smiles string>
CC[C@@]1(O)C(=O)OCc2c1cc1n(c2=O)Cc2c-1nc1cc3c(c(F)c1c2CN)CCC3

>  <IC50>
> 1000 nM

$$$$

Indicate the recorded IC50 value for this compound: CC[C@@]1(O)C(=O)OCc2c1cc1n(c2=O)Cc2c-1nc1cc(F)c(C)c(-c3cccc(O)c3)c1c2CN
2 nM

---

- Test system: anaplastic large cell lymphoma cells (Karpas299)
- measurement description: In vitro potency (CellTiter-Glo, 96 h) on Karpas299
- Assay type: cell-based
- particulars: Homo sapiens, KARPAS-299, 96 h, CPT free drugs; CellTiter-Glo after 96 h exposure; read-out: Karpas299 IC50
quantity name: pIC50
Scale: pIC50 equals -log10([C]), with [C] in mol/L.

Some solved cases for reference:
>  <compound>
CC[C@@]1(O)C(=O)OCc2c1cc1n(c2=O)Cc2c-1nc1cc(F)c(C)c(/C=C/c3ccc(OC)cc3)c1c2CN [Compound 2ai]

>  <pIC50>
7.33

$$$$
>  <compound>
C/C=C/c1c(C)c(F)cc2nc3c(c(CN)c12)Cn1c-3cc2c(c1=O)COC(=O)[C@]2(O)CC [Compound 2aj]

>  <pIC50>
8.70

$$$$
>  <compound>
CC[C@@]1(O)C(=O)OCc2c1cc1n(c2=O)Cc2c-1nc1cc(F)c(C)c(C3=CCOCC3)c1c2CN [Compound 6h]

>  <pIC50>
7.55

$$$$

Switching to the query record.
Indicate the recorded pIC50 value for this compound: CC[C@@]1(O)C(=O)OCc2c1cc1n(c2=O)Cc2c-1nc1cc(F)c(C)c(-c3ccsc3)c1c2CN [Compound 6g]
8.40

---

- Test system: B-lymphocyte cancer cells (SU-DHL4)
- measurement description: In vitro potency (CellTiter-Glo, 96 h) on SU-DHL4
- Type: cell-based
- particulars: Homo sapiens, SU-DHL-4, 96 h, read-out: SU-DHL-4 IC50
Friendly reminder: IC50 below 3 nM is y, at or above is n.

Would you please look over these solved cases?
>  <compound>
CC[C@@]1(O)C(=O)OCc2c1cc1n(c2=O)Cc2c-1nc1cc3c(cc1c2CNCCCN1CCNCC1)OCO3 [Compound 8d]

>  <assigned category>
n

$$$$
>  <compound>
CC[C@@]1(O)C(=O)OCc2c1cc1n(c2=O)Cc2c-1nc1cc3c(cc1c2CNC1CCNCC1)OCO3 [Compound 8e]

>  <assigned category>
n

$$$$
>  <compound>
C=C(C)c1c(C)c(F)cc2nc3c(c(CN)c12)Cn1c-3cc2c(c1=O)COC(=O)[C@]2(O)CC [Compound 2al]

>  <assigned category>
y

$$$$
>  <compound>
CC[C@@]1(O)C(=O)OCc2c1cc1n(c2=O)Cc2c-1nc1cc3c(cc1c2CNCCN1CCNCC1)OCO3 [Compound 8b]

>  <assigned category>
n

$$$$
>  <compound>
CC[C@@]1(O)C(=O)OCc2c1cc1n(c2=O)Cc2c-1nc1cc(F)c(C)c(C=C(C)C)c1c2CN [Compound 6]

>  <assigned category>
y

$$$$
>  <compound>
CC[C@@]1(O)C(=O)OCc2c1cc1n(c2=O)Cc2c-1nc1cc3c(cc1c2CNCC(O)CN1CCOCC1)OCO3 (some centres unmarked) [Compound 7i]

>  <assigned category>
n

$$$$
>  <compound>
CC[C@@]1(O)C(=O)OCc2c1cc1n(c2=O)Cc2c-1nc1cc3c(cc1c2CNCCCN1CCN(C)CC1)OCO3 [Compound 7h]

>  <assigned category>
n

$$$$
>  <compound>
C=Cc1c(C)c(F)cc2nc3c(c(CN)c12)Cn1c-3cc2c(c1=O)COC(=O)[C@]2(O)CC [Compound 2am]

>  <assigned category>
y

$$$$

Check if IC50 falls below 3 nM for CC[C@@]1(O)C(=O)OCc2c1cc1n(c2=O)Cc2c-1nc1cc3c(c(Br)c1c2CN)OCO3 [Compound 5c] .
y

Check if IC50 falls below 3 nM for CC[C@@]1(O)C(=O)OCc2c1cc1n(c2=O)Cc2c-1nc1cc3c(cc1c2Cn1cnc(CO)c1)OCO3 [Compound 7aj] .
n

Check if IC50 falls below 3 nM for CC[C@@]1(O)C(=O)OCc2c1cc1n(c2=O)Cc2c-1nc1cc3c(cc1c2CO)CCO3 [Compound 35] .
y

Check if IC50 falls below 3 nM for CC[C@@]1(O)C(=O)OCc2c1cc1n(c2=O)Cc2c-1nc1cc3c(cc1c2CNCCCNC)OCO3 [Compound 8a] .
n

Check if IC50 falls below 3 nM for CC[C@@]1(O)C(=O)OCc2c1cc1n(c2=O)Cc2c-1nc1cc3c(cc1c2CNC(C)=O)CCO3 [Compound 12] .
y

---

- Test system: B-lymphocyte cancer cells (SU-DHL4)
- measurement description: In vitro potency (CellTiter-Glo, 96 h) on SU-DHL4
- Format: cell-based
- particulars: Homo sapiens, SU-DHL-4, 96 h, read-out: SU-DHL-4 IC50
pIC50: −log10 of the molar value.
Label satisfied when pIC50 >= 9; otherwise not satisfied.

Would you please look over these solved cases?
>  <molecule>
CC[C@@]1(O)C(=O)OCc2c1cc1n(c2=O)Cc2c-1nc1cc(F)c(C)c(Cl)c1c2CNC(C)=O [Compound 12a]

>  <assigned category>
satisfied

$$$$
>  <molecule>
CC[C@@]1(O)C(=O)OCc2c1cc1n(c2=O)Cc2c-1nc1cc3c(cc1c2CN1CCN(CCN)CC1)OCO3

>  <assigned category>
not satisfied

$$$$
>  <molecule>
CCc1c(C)c(F)cc2nc3c(c(CN)c12)Cn1c-3cc2c(c1=O)COC(=O)[C@]2(O)CC

>  <assigned category>
not satisfied

$$$$

I'd appreciate it if you could say whether CC[C@@]1(O)C(=O)OCc2c1cc1n(c2=O)Cc2c-1nc1cc3c(cc1c2CNC1CCOC1)OCO3 (stereo partly shown) has pIC50 at least equal to 9.
satisfied

I'd appreciate it if you could say whether CC[C@@]1(O)C(=O)OCc2c1cc1n(c2=O)Cc2c-1nc1cc3c(cc1c2CNC[C@H](O)CO)OCO3 has pIC50 at least equal to 9.
not satisfied

I'd appreciate it if you could say whether CC[C@@]1(O)C(=O)OCc2c1cc1n(c2=O)Cc2c-1nc1cc3c(cc1c2CN1CCC(N)CC1)OCO3 has pIC50 at least equal to 9.
not satisfied

---

- Tested on: breast cancer cells (MDA-MB-231)
- measurement description: In vitro potency (CellTiter-Glo, 96 h) on MDA-MB-231
- Assay type: cell-based
- particulars: Homo sapiens, MDA-MB-231, 96 h, read-out: MDAMB 231 IC50
pIC50: −log10 of the molar value.
Label yes (1) when pIC50 >= 8; otherwise no (0).

>  <compound>
CC[C@@]1(O)C(=O)OCc2c1cc1n(c2=O)Cc2c-1nc1cc3c(cc1c2CNC1CCNCC1)OCO3

>  <assigned category>
no (0)

$$$$
>  <compound>
CC[C@@]1(O)C(=O)OCc2c1cc1n(c2=O)Cc2c-1nc1cc3c(c(Br)c1c2CN)OCO3

>  <assigned category>
yes (1)

$$$$
>  <compound>
CC[C@@]1(O)C(=O)OCc2c1cc1n(c2=O)Cc2c-1nc1cc3c(cc1c2CNCC(O)CN1CCOCC1)OCO3 (stereo partly drawn)

>  <assigned category>
no (0)

$$$$
>  <compound>
CC[C@@]1(O)C(=O)OCc2c1cc1n(c2=O)Cc2c-1nc1cc3c(cc1c2CN1CCC(N)CC1)OCO3

>  <assigned category>
no (0)

$$$$
>  <compound>
CC[C@@]1(O)C(=O)OCc2c1cc1n(c2=O)Cc2c-1nc1cc3c(cc1c2CNC[C@H](O)CN1CCCCC1)OCO3

>  <assigned category>
no (0)

$$$$
>  <compound>
CC[C@@]1(O)C(=O)OCc2c1cc1n(c2=O)Cc2c-1nc1cc(F)c(C)c(Cl)c1c2CNC(C)=O [Compound 12a]

>  <assigned category>
yes (1)

$$$$
>  <compound>
CC[C@@]1(O)C(=O)OCc2c1cc1n(c2=O)Cc2c-1nc1cc3c(cc1c2CNC[C@H](O)CO)OCO3

>  <assigned category>
no (0)

$$$$
>  <compound>
CC[C@@]1(O)C(=O)OCc2c1cc1n(c2=O)Cc2c-1nc1cc3c(cc1c2CNCCCNC)OCO3

>  <assigned category>
no (0)

$$$$
>  <compound>
CC[C@@]1(O)C(=O)OCc2c1cc1n(c2=O)Cc2c-1nc1cc3c(cc1c2Cn1cnc(CO)c1)OCO3

>  <assigned category>
no (0)

$$$$

Next compound, please.
I'd appreciate it if you could say whether CC[C@@]1(O)C(=O)OCc2c1cc1n(c2=O)Cc2c-1nc1cc3c(cc1c2CNC(C)=O)CCO3 has pIC50 at least equal to 8.
no (0)
